System: VDR:RXRa (NR concentration 270 nM, RXRa partner concentration 90 nM)
Assay: PBM binding z-score (relative to random genomic background probes); higher = stronger binding; sequences stand for … in GC…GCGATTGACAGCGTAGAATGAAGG
Reported PBM binding z-score values follow for various sequences

INSERT INTO assay_data (entry_sequence, recorded_measurement) VALUES
  ('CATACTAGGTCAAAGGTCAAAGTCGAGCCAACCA', 6.61);

Memo: CGAACTAGGTCCTTGACAGGACAGTGAATAGTAA , reported PBM binding z-score: -0.351

====

Tested on: LXRa homodimer (NR concentration 270 nM)
Test: PBM binding z-score (relative to random genomic background probes); higher = stronger binding; sequences stand for … in GC…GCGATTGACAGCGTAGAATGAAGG
measurement.type: PBM binding z-score
The answer should be a number; do not append a unit.

Illustrative cases are given below, each with its answer.
INSERT INTO assay_data (entry_sequence, recorded_measurement) VALUES
  ('GCTGCTAGGTCAGGATGGTCAGCTAACGGGTACG', -0.251),
  ('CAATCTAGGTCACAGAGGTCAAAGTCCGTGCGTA', 7.96),
  ('CCTACTGGGCCAAAGGCCATTGATTCCAATGCTC', -0.23),
  ('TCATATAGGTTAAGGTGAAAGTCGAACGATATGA', 0.00535),
  ('CGTCTAAGTTCAAGGTAACGTAACAGAAAGCAGC', 1.01),
  ('ATCGAAACGTCGACGAGGTGAGTATACACCGTTT', -0.605),
  ('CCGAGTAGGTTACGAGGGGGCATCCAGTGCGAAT', 1.45),
  ('ATCTCTAGGTAAATGTTCAGTGAATCCCGAGGAT', -0.0436);

Memo: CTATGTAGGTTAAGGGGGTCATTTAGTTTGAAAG , reported PBM binding z-score: 3.42

Memo: ATATGTAGGTTAGGGTCATTAAGAAAGTAGGGAA , reported PBM binding z-score: 1.04

Memo: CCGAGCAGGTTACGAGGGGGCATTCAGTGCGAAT , reported PBM binding z-score: 1.46

Memo: ATATGTAGGGTAGGGTCATTCAGAAAGTAGGGAA , reported PBM binding z-score: 2.32

====

Test system: PPARg:RXRa 90nM:30nM, anti-RXR (NR concentration 90 nM, RXRa partner concentration 30 nM)
Experiment: PBM binding z-score (relative to random genomic background probes); higher = stronger binding; sequences stand for … in GC…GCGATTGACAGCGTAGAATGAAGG
Class definitions on PBM binding z-score: low = under 2, mid = from 2 up to 5, high = 5 and over

INSERT INTO measurements (entry_sequence, discrete_label) VALUES
  ('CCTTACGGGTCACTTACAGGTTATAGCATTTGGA', 'mid'),
  ('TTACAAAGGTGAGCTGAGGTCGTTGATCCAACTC', 'low'),
  ('ATCGAAAGGTCGAAGGTGAGTCTACCCACCCGAA', 'mid');

Assign a bin to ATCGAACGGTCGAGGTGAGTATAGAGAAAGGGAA low

Assign a bin to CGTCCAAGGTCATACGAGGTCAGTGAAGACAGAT mid

Assign a bin to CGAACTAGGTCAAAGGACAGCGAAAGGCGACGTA high

Assign a bin to TAGCCTAGGTCATAGGCCAGTATACCACGCGAAC mid

Assign a bin to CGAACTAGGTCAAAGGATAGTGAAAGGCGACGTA high

Assign a bin to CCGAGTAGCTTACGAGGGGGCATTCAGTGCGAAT low

Assign a bin to TGAATGAAGTTAAAGATCAGGGAACGTGGCGTCG low

Assign a bin to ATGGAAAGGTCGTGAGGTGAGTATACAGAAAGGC mid

Assign a bin to CCTACTGGGCCAAAAAGGCCATTGATGCCGATAA low

Assign a bin to CGAACCAGGTCACCAGGACAGTGAAGAGGTTGGA mid

Assign a bin to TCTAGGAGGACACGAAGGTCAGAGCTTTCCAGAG mid

====

Tested on: RARb:RXRa (NR concentration 270 nM, RXRa partner concentration 90 nM)
Experiment: PBM binding z-score (relative to random genomic background probes); higher = stronger binding; sequences stand for … in GC…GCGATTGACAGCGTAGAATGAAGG
Think of 4 as a floor: if PBM binding z-score stands on it or above, it is 1; beneath it, 0.

Worked set:
INSERT INTO measurements (entry_sequence, assayed_system, discrete_label) VALUES
  ('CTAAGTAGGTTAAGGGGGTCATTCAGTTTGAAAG', 'RARb:RXRa (NR concentration 270 nM, RXRa partner concentration 90 nM)', 0),
  ('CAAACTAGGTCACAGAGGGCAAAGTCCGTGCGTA', 'RARb:RXRa (NR concentration 270 nM, RXRa partner concentration 90 nM)', 1),
  ('TCATATAGGTCAAAGGTGAAAGTCGGTGTGGTAA', 'RARb:RXRa (NR concentration 270 nM, RXRa partner concentration 90 nM)', 1);

Given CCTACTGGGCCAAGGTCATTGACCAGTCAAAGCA , state whether its PBM binding z-score is at least 4. 0

====

System: PPARg:RXRa IVT, anti-PPARg (NR concentration 270 nM, RXRa partner concentration 90 nM)
Assay: PBM binding z-score (relative to random genomic background probes); higher = stronger binding; sequences stand for … in GC…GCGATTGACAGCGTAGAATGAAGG
measurement.type: PBM binding z-score
The answer should be a number; do not append a unit.

Illustrative cases are given below, each with its answer.
INSERT INTO assay_data (entry_sequence, measurement_type, recorded_measurement) VALUES
  ('CCTACTGGGCCAAGGTCTTTGATCAGTCAAAGCA', 'PBM binding z-score', 3.33),
  ('TCGAGTAGTTTACGGGGGCATTCAGGGATGAAGA', 'PBM binding z-score', 3.22),
  ('ATCGAAAGGTCGTGAGGTGTGTATACAGAAAGGC', 'PBM binding z-score', 2.26);

Memo: ATAGAAAGGTCGAAGGTGAGTATACCCACCCGAA , reported PBM binding z-score: 2.05

====

Test system: RXRa DBDmut IVT, anti-RXR (DBD mutation: RXRa K156A/R161A, NR concentration 90 nM)
Experiment: PBM binding z-score (relative to random genomic background probes); higher = stronger binding; sequences stand for … in GC…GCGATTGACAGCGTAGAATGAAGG
Think of 1 as a floor: if PBM binding z-score stands on it or above, it is T; beneath it, F.

Worked set:
INSERT INTO assay_data (entry_sequence, discrete_label) VALUES
  ('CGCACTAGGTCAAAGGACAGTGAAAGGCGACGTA', 'T'),
  ('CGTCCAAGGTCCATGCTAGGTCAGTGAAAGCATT', 'T'),
  ('ACTCGGAGGATAAAGGTCAGAGCTACGCCAGTGA', 'F');

Given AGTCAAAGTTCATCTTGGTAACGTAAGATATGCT , state whether its PBM binding z-score is at least 1. T

Given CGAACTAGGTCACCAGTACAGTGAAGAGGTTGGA , state whether its PBM binding z-score is at least 1. T

Given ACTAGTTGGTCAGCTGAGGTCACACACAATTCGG , state whether its PBM binding z-score is at least 1. T

Given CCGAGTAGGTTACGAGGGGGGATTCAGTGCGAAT , state whether its PBM binding z-score is at least 1. T

Given ATATGTTGGTTAGGGTCATTCAGAAAGTAGGGAA , state whether its PBM binding z-score is at least 1. T

Given CGAACTAGGTCACCAGGACGGTGAAGAGGTTGGA , state whether its PBM binding z-score is at least 1. F

====

Test system: PPARg:RXRa DBDmut IVT, anti-RXR (DBD mutation: RXRa K156A/R161A, NR concentration 270 nM, RXRa partner concentration 90 nM)
Experiment: PBM binding z-score (relative to random genomic background probes); higher = stronger binding; sequences stand for … in GC…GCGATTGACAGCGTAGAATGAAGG
Reported PBM binding z-score values follow for various sequences
The answer should be a number; do not append a unit.

Illustrative cases are given below, each with its answer.
INSERT INTO assay_data (entry_sequence, recorded_measurement) VALUES
  ('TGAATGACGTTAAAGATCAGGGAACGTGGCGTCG', -1.13),
  ('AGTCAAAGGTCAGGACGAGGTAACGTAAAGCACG', 3.25);

Memo: TCTAGTTGGTCACGGGGGTCACACACGACGGGTA , reported PBM binding z-score: 3.49

Memo: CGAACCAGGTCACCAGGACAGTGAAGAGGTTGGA , reported PBM binding z-score: 5.49

Memo: CGAACTAGGTCAGAACAGGACATTGAAGGATGAT , reported PBM binding z-score: 7.08

Memo: TGGCCTAGGTCATGCGGGCCAGTATAGTGTCGGC , reported PBM binding z-score: 1.03

Memo: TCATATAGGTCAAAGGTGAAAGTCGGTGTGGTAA , reported PBM binding z-score: 8.06

Memo: GCTTACGGGTCAAAAGTTATAGCATGAATAGAAT , reported PBM binding z-score: 3.77

Memo: AGTCAAAGTTCAGTAGGTAACGTAAGATTCAGCT , reported PBM binding z-score: 2.06

Memo: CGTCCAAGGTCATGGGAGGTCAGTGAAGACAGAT , reported PBM binding z-score: 2.93

Memo: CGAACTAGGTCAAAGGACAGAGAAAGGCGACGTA , reported PBM binding z-score: 8.13

Memo: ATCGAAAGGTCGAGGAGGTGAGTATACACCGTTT , reported PBM binding z-score: 0.255

Memo: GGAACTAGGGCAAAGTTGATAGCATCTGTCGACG , reported PBM binding z-score: 7.94

Memo: TCTCGGAGGACACGAAAGGTCTGAGCTCGACATC , reported PBM binding z-score: 1.62

Memo: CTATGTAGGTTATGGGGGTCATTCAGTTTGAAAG , reported PBM binding z-score: 7.32

Memo: TCGAGTAGGTTACGGGGCCATTCAGGGATGAAGA , reported PBM binding z-score: 3.76
